Quick reference: Ratio of the listed items.
Molecular target: Cytochrome P450 11B1, mitochondrial (Bos taurus, UniProt P15150)
Sequence (P15150 whole entry): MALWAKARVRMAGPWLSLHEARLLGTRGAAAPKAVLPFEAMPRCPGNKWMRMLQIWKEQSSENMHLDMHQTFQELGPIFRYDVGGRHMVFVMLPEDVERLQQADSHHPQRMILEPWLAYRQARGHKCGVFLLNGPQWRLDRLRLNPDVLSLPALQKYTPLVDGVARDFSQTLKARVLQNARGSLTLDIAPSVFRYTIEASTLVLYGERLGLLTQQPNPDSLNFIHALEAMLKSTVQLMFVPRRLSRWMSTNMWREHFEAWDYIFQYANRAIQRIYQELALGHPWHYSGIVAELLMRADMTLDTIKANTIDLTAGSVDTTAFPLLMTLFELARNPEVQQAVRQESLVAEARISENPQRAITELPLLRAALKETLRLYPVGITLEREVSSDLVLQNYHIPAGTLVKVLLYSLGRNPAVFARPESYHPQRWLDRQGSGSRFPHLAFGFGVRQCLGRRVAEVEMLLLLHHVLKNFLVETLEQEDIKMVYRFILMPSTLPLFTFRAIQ
Test: Inhibition of bovine adrenal gland 11beta-hydroxylase assessed as inhibition of [14C]-deoxycorticosterone hydroxylation at 2 uM relative to metyrapone
Settings: cattle
# answer = number (no unit)

Here's what some known entries look like.
>  <Compound>
CC(C(=O)c1ccccc1)c1cccnc1 (stereo not given)

>  <Experimental Result>
0.65

$$$$
>  <Compound>
O=C(c1cccnc1)C(c1ccccc1)c1ccccc1

>  <Experimental Result>
0.22

$$$$
>  <Compound>
CC(C)(C(=O)c1cccnc1)c1cccnc1

>  <Experimental Result>
1

$$$$
>  <Compound>
O=C(c1ccccc1)C(c1ccccc1)c1cccnc1 (stereo not given)

>  <Experimental Result>
0.32

$$$$

Lab note: "O=C(Cc1cccnc1)c1ccccc1" gave Ratio of 0.22

Data origin, for the record: ChEMBL document CHEMBL3243950
